settings: in 2-ethoxyethanol, 293.15 K
assayMetric: solubility (mole fraction)
# output: bare number, no unit

molecule O=C1NC(=O)C2C3C=CC(C3)C12 (stereo unspecified) , solubility (mole fraction) observed: 0.0295

###

conditions: in n-propyl acetate, 278.15 K
assayMetric: solubility (mole fraction)
# output: bare number, no unit

compound O=C1NC(=O)C2C3C=CC(C3)C12 (stereo unspecified) , solubility (mole fraction) observed: 0.00537

###

conditions: in n-butyl acetate, 318.15 K
assayMetric: solubility (mole fraction)

molecule O=C1NC(=O)C2C3C=CC(C3)C12 (stereo unspecified) , solubility (mole fraction) observed: 0.0156

###

conditions: in 2-ethoxyethanol, 278.15 K
assayMetric: solubility (mole fraction)

compound O=C1NC(=O)C2C3C=CC(C3)C12 (stereo unspecified) , solubility (mole fraction) observed: 0.019

###

details: in methanol, 293.15 K
assayMetric: solubility (mole fraction)

molecule O=C1NC(=O)C2C3C=CC(C3)C12 (stereo unspecified) , solubility (mole fraction) observed: 0.0104

###

conditions: in isopropyl acetate, 283.15 K
assayMetric: solubility (mole fraction)
# output: bare number, no unit

molecule O=C1NC(=O)C2C3C=CC(C3)C12 (stereo unspecified) , solubility (mole fraction) observed: 0.00565

###

details: in ethanol, 318.15 K
assayMetric: solubility (mole fraction)
# output: bare number, no unit

compound O=C1NC(=O)C2C3C=CC(C3)C12 (stereo unspecified) , solubility (mole fraction) observed: 0.0195

###

details: in 2-ethoxyethanol, 323.15 K
assayMetric: solubility (mole fraction)
# output: bare number, no unit

compound O=C1NC(=O)C2C3C=CC(C3)C12 (stereo unspecified) , solubility (mole fraction) observed: 0.0627

###

conditions: in DMF, 293.15 K
assayMetric: solubility (mole fraction)
# output: bare number, no unit

compound O=C1NC(=O)C2C3C=CC(C3)C12 (stereo unspecified) , solubility (mole fraction) observed: 0.0915

###

details: in ethyl acetate, 318.15 K
assayMetric: solubility (mole fraction)
# output: bare number, no unit

molecule O=C1NC(=O)C2C3C=CC(C3)C12 (stereo unspecified) , solubility (mole fraction) observed: 0.0255

###

conditions: in ethanol, 308.15 K
assayMetric: solubility (mole fraction)
# output: bare number, no unit

molecule O=C1NC(=O)C2C3C=CC(C3)C12 (stereo unspecified) , solubility (mole fraction) observed: 0.0138

###

conditions: in DMF, 318.15 K
assayMetric: solubility (mole fraction)

molecule O=C1NC(=O)C2C3C=CC(C3)C12 (stereo unspecified) , solubility (mole fraction) observed: 0.159

###

conditions: in ethanol, 293.15 K
assayMetric: solubility (mole fraction)
# output: bare number, no unit

molecule O=C1NC(=O)C2C3C=CC(C3)C12 (stereo unspecified) , solubility (mole fraction) observed: 0.00789

###

conditions: in methyl acetate, 283.15 K
assayMetric: solubility (mole fraction)
# output: bare number, no unit

compound O=C1NC(=O)C2C3C=CC(C3)C12 (stereo unspecified) , solubility (mole fraction) observed: 0.0135

###

conditions: in isopropyl acetate, 308.15 K
assayMetric: solubility (mole fraction)
# output: bare number, no unit

compound O=C1NC(=O)C2C3C=CC(C3)C12 (stereo unspecified) , solubility (mole fraction) observed: 0.0124

###

settings: in isopropyl acetate, 298.15 K
assayMetric: solubility (mole fraction)
# output: bare number, no unit

molecule O=C1NC(=O)C2C3C=CC(C3)C12 (stereo unspecified) , solubility (mole fraction) observed: 0.00903

###

conditions: in ethyl acetate, 283.15 K
assayMetric: solubility (mole fraction)
# output: bare number, no unit

compound O=C1NC(=O)C2C3C=CC(C3)C12 (stereo unspecified) , solubility (mole fraction) observed: 0.00971

###

conditions: in methyl acetate, 323.15 K
assayMetric: solubility (mole fraction)
# output: bare number, no unit

compound O=C1NC(=O)C2C3C=CC(C3)C12 (stereo unspecified) , solubility (mole fraction) observed: 0.0474

###

conditions: in DMF, 298.15 K
assayMetric: solubility (mole fraction)

molecule O=C1NC(=O)C2C3C=CC(C3)C12 (stereo unspecified) , solubility (mole fraction) observed: 0.107

###

details: in n-butyl acetate, 303.15 K
assayMetric: solubility (mole fraction)
# output: bare number, no unit

molecule O=C1NC(=O)C2C3C=CC(C3)C12 (stereo unspecified) , solubility (mole fraction) observed: 0.0103

###

details: in methyl acetate, 308.15 K
assayMetric: solubility (mole fraction)
# output: bare number, no unit

molecule O=C1NC(=O)C2C3C=CC(C3)C12 (stereo unspecified) , solubility (mole fraction) observed: 0.0303

###

conditions: in ethyl acetate, 293.15 K
assayMetric: solubility (mole fraction)
# output: bare number, no unit

molecule O=C1NC(=O)C2C3C=CC(C3)C12 (stereo unspecified) , solubility (mole fraction) observed: 0.0128

###

details: in acetone, 278.15 K
assayMetric: solubility (mole fraction)
# output: bare number, no unit

compound O=C1NC(=O)C2C3C=CC(C3)C12 (stereo unspecified) , solubility (mole fraction) observed: 0.0128

###

details: in methanol, 298.15 K
assayMetric: solubility (mole fraction)
# output: bare number, no unit

compound O=C1NC(=O)C2C3C=CC(C3)C12 (stereo unspecified) , solubility (mole fraction) observed: 0.0127

###

details: in n-propyl acetate, 318.15 K
assayMetric: solubility (mole fraction)
# output: bare number, no unit

compound O=C1NC(=O)C2C3C=CC(C3)C12 (stereo unspecified) , solubility (mole fraction) observed: 0.0193

###

conditions: in ethanol, 288.15 K
assayMetric: solubility (mole fraction)
# output: bare number, no unit

molecule O=C1NC(=O)C2C3C=CC(C3)C12 (stereo unspecified) , solubility (mole fraction) observed: 0.00642

###

settings: in n-propyl acetate, 303.15 K
assayMetric: solubility (mole fraction)
# output: bare number, no unit

compound O=C1NC(=O)C2C3C=CC(C3)C12 (stereo unspecified) , solubility (mole fraction) observed: 0.0124

###

details: in ethanol, 283.15 K
assayMetric: solubility (mole fraction)
# output: bare number, no unit

compound O=C1NC(=O)C2C3C=CC(C3)C12 (stereo unspecified) , solubility (mole fraction) observed: 0.00512

###

details: in acetone, 298.15 K
assayMetric: solubility (mole fraction)
# output: bare number, no unit

molecule O=C1NC(=O)C2C3C=CC(C3)C12 (stereo unspecified) , solubility (mole fraction) observed: 0.0225

###

settings: in methanol, 278.15 K
assayMetric: solubility (mole fraction)
# output: bare number, no unit

compound O=C1NC(=O)C2C3C=CC(C3)C12 (stereo unspecified) , solubility (mole fraction) observed: 0.00626

###

settings: in methyl acetate, 278.15 K
assayMetric: solubility (mole fraction)
# output: bare number, no unit

compound O=C1NC(=O)C2C3C=CC(C3)C12 (stereo unspecified) , solubility (mole fraction) observed: 0.0113

###

conditions: in ethyl acetate, 288.15 K
assayMetric: solubility (mole fraction)
# output: bare number, no unit

compound O=C1NC(=O)C2C3C=CC(C3)C12 (stereo unspecified) , solubility (mole fraction) observed: 0.0112

###

conditions: in methyl acetate, 298.15 K
assayMetric: solubility (mole fraction)

compound O=C1NC(=O)C2C3C=CC(C3)C12 (stereo unspecified) , solubility (mole fraction) observed: 0.0223

###

conditions: in 1,4-dioxane, 308.15 K
assayMetric: solubility (mole fraction)

compound O=C1NC(=O)C2C3C=CC(C3)C12 (stereo unspecified) , solubility (mole fraction) observed: 0.0649

###

details: in acetone, 283.15 K
assayMetric: solubility (mole fraction)
# output: bare number, no unit

compound O=C1NC(=O)C2C3C=CC(C3)C12 (stereo unspecified) , solubility (mole fraction) observed: 0.0146

###

conditions: in methanol, 283.15 K
assayMetric: solubility (mole fraction)
# output: bare number, no unit

molecule O=C1NC(=O)C2C3C=CC(C3)C12 (stereo unspecified) , solubility (mole fraction) observed: 0.00766

###

conditions: in ethanol, 303.15 K
assayMetric: solubility (mole fraction)
# output: bare number, no unit

compound O=C1NC(=O)C2C3C=CC(C3)C12 (stereo unspecified) , solubility (mole fraction) observed: 0.0115

###

conditions: in methyl acetate, 313.15 K
assayMetric: solubility (mole fraction)
# output: bare number, no unit

compound O=C1NC(=O)C2C3C=CC(C3)C12 (stereo unspecified) , solubility (mole fraction) observed: 0.0352

###

conditions: in 1,4-dioxane, 323.15 K
assayMetric: solubility (mole fraction)
# output: bare number, no unit

compound O=C1NC(=O)C2C3C=CC(C3)C12 (stereo unspecified) , solubility (mole fraction) observed: 0.0962

###

details: in 2-ethoxyethanol, 288.15 K
assayMetric: solubility (mole fraction)
# output: bare number, no unit

compound O=C1NC(=O)C2C3C=CC(C3)C12 (stereo unspecified) , solubility (mole fraction) observed: 0.0255

###

settings: in 2-ethoxyethanol, 283.15 K
assayMetric: solubility (mole fraction)
# output: bare number, no unit

molecule O=C1NC(=O)C2C3C=CC(C3)C12 (stereo unspecified) , solubility (mole fraction) observed: 0.0224
